B1: HDV Ribozyme (parent)
chain: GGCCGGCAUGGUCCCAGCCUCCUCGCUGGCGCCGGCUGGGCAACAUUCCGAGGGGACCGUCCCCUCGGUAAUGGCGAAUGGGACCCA

- Variants of: B1
- Assay Text: self-cleavage, relative activity (ratio to wild type); higher = more cleavage; co-transcriptional
self-cleavage: recorded values

[
  {
    "Variant Key": "G35A C49A",
    "self-cleavage": 0.591
  },
  {
    "Variant Key": "C4A G6C",
    "self-cleavage": 0.0594
  },
  {
    "Variant Key": "A42G",
    "self-cleavage": 0.562
  },
  {
    "Variant Key": "U27G C36U",
    "self-cleavage": 0.322
  },
  {
    "Variant Key": "C7U C57A",
    "self-cleavage": 0.979
  },
  {
    "Variant Key": "G5C C26A",
    "self-cleavage": 0.508
  },
  {
    "Variant Key": "G10U G39C",
    "self-cleavage": 0.138
  },
  {
    "Variant Key": "G6C U12G",
    "self-cleavage": 0
  },
  {
    "Variant Key": "U12C G59U",
    "self-cleavage": 0.135
  },
  {
    "Variant Key": "C14A G73U",
    "self-cleavage": 0.13
  },
  {
    "Variant Key": "A78U A83G",
    "self-cleavage": 0.285
  },
  {
    "Variant Key": "C19G C21A",
    "self-cleavage": 0.208
  },
  {
    "Variant Key": "G25U A43U",
    "self-cleavage": 0.0707
  },
  {
    "Variant Key": "C4A C21U",
    "self-cleavage": 0.0346
  },
  {
    "Variant Key": "C49G G52U",
    "self-cleavage": 0.48
  },
  {
    "Variant Key": "A42G A83U",
    "self-cleavage": 0.185
  },
  {
    "Variant Key": "G1A A70C",
    "self-cleavage": 0.192
  },
  {
    "Variant Key": "G54A C62U",
    "self-cleavage": 1.05
  },
  {
    "Variant Key": "U20G U72G",
    "self-cleavage": 0
  },
  {
    "Variant Key": "C26A C84G",
    "self-cleavage": 0.95
  },
  {
    "Variant Key": "G52A U65C",
    "self-cleavage": 0.954
  },
  {
    "Variant Key": "C18A G39U",
    "self-cleavage": 0.0369
  },
  {
    "Variant Key": "C49A A87U",
    "self-cleavage": 0.857
  },
  {
    "Variant Key": "A43G G73A",
    "self-cleavage": 0.219
  },
  {
    "Variant Key": "U20A C86A",
    "self-cleavage": 0.0723
  },
  {
    "Variant Key": "U20A U60G",
    "self-cleavage": 0.128
  },
  {
    "Variant Key": "A56G U69A",
    "self-cleavage": 0.906
  },
  {
    "Variant Key": "G10A G52U",
    "self-cleavage": 0.838
  },
  {
    "Variant Key": "G35C C66A",
    "self-cleavage": 0.253
  },
  {
    "Variant Key": "C18A A56U",
    "self-cleavage": 0.222
  },
  {
    "Variant Key": "G34U G39A",
    "self-cleavage": 0.174
  },
  {
    "Variant Key": "A16C G38A",
    "self-cleavage": 0.0504
  },
  {
    "Variant Key": "U23A G76A",
    "self-cleavage": 0.978
  },
  {
    "Variant Key": "C21G G59U",
    "self-cleavage": 0.0941
  },
  {
    "Variant Key": "C4U C61U",
    "self-cleavage": 0.717
  },
  {
    "Variant Key": "G34C U37A",
    "self-cleavage": 0.297
  }
]
